Collected cell proliferation values appear next to each entry.
Tested on: U2932 parental
Test: cell proliferation relative to vehicle (% of vehicle); higher = less growth inhibition
Conditions: 50 nM; 72 h

- compound: "Oc1nc(-c2ccc(C(F)(F)F)cc2)nc2c1CSCC2"
  cell proliferation: 99.3
- compound: "C[C@H](Nc1ncnc2nc[nH]c12)c1cc2cccc(Cl)c2c(=O)n1-c1ccccc1"
  cell proliferation: 106
- compound: "COc1cc(C(=O)N2CCC(N3CCN(C)CC3)CC2)ccc1Nc1ncc2c(n1)N(C)c1ccccc1C(=O)N2C"
  cell proliferation: 105
- compound: "Cc1cc(N2CCOCC2)cc2[nH]c(-c3c(NC[C@@H](O)c4cccc(Cl)c4)cc[nH]c3=O)nc12"
  cell proliferation: 102
- compound: "Oc1cccc(-c2nc(N3CCOCC3)c3oc4ncccc4c3n2)c1"
  cell proliferation: 92.1
- compound: "CC(C)C(=O)Nc1ccc([N+](=O)[O-])c(C(F)(F)F)c1 [Flutamide]"
  cell proliferation: 89.3
- compound: "CCNC(=O)c1noc(-c2cc(C(C)C)c(O)cc2O)c1-c1ccc(CN2CCOCC2)cc1"
  cell proliferation: 3.32
- compound: "O=C(CCCCCCC(=O)Nc1ccccc1)NO [Vorinostat (SAHA, MK0683)]"
  cell proliferation: 98.2
- compound: "CC(C)N(C[C@H]1O[C@@H](n2cnc3c(N)ncnc32)[C@H](O)[C@@H]1O)[C@H]1C[C@@H](CCc2nc3cc(C(C)(C)C)ccc3[nH]2)C1"
  cell proliferation: 101
